# measurement description: Equilibrium water solubility at pH 3.8
# Type: physicochemical
assay readout: solubility thermodynamic

Supply reported solubility thermodynamic belonging to this molecule: CO/C(C)=C1/NC(=O)[C@H]([C@@H](C)O)NC(=O)c2csc(n2)-c2cc(O)c(-c3nc(C(=O)NC(CN4CCC(O)CC4)C(N)=O)cs3)nc2-c2csc(n2)[C@@H]2COC(=O)c3c4c5c(cccc5n3O)COC(=O)[C@@H](O[C@H]3C[C@](C)(O)[C@H](N(C)C)[C@H](C)O3)[C@@H](OC4)[C@H](NC(=O)c3csc1n3)c1nc(cs1)C(=O)N2 (stereo partly specified)
> 2700 µg/mL

###

# Test system: Staphylococcus aureus
# measurement description: In vitro antibacterial activity against methicillin-sensitive Staphylococcus aureus A15090
# Assay type: functional
assay readout: MIC (µg/mL)
Numbers only, in µg/mL.

Provide MIC for all items below, preserving their order.
1. CO/C(C)=C1/NC(=O)[C@H]([C@@H](C)O)NC(=O)c2csc(n2)-c2cc(O)c(-c3nc(C(=O)NC(CN(C)CCCn4ccnc4)C(N)=O)cs3)nc2-c2csc(n2)[C@@H]2COC(=O)c3c4c5c(cccc5n3O)COC(=O)[C@@H](O[C@H]3C[C@](C)(O)[C@H](N(C)C)[C@H](C)O3)[C@@H](OC4)[C@H](NC(=O)c3csc1n3)c1nc(cs1)C(=O)N2 (stereo partly specified)
2. CO/C(C)=C1/NC(=O)[C@H]([C@@H](C)O)NC(=O)c2csc(n2)-c2cc(O)c(-c3nc(C(=O)NC(CN4CCN(C(C)=O)CC4)C(N)=O)cs3)nc2-c2csc(n2)[C@@H]2COC(=O)c3c4c5c(cccc5n3O)COC(=O)[C@@H](O[C@H]3C[C@](C)(O)[C@H](N(C)C)[C@H](C)O3)[C@@H](OC4)[C@H](NC(=O)c3csc1n3)c1nc(cs1)C(=O)N2 (stereo partly specified)
3. CO/C(C)=C1/NC(=O)[C@H]([C@@H](C)O)NC(=O)c2csc(n2)-c2cc(O)c(-c3nc(C(=O)NC(CN(C)CCO)C(N)=O)cs3)nc2-c2csc(n2)[C@@H]2COC(=O)c3c4c5c(cccc5n3O)COC(=O)[C@@H](O[C@H]3C[C@](C)(O)[C@H](N(C)C)[C@H](C)O3)[C@@H](OC4)[C@H](NC(=O)c3csc1n3)c1nc(cs1)C(=O)N2 (stereo partly specified)
4. CO/C(C)=C1/NC(=O)[C@H]([C@@H](C)O)NC(=O)c2csc(n2)-c2cc(O)c(-c3nc(C(=O)NC(CNCCN(C)C)C(N)=O)cs3)nc2-c2csc(n2)[C@@H]2COC(=O)c3c4c5c(cccc5n3O)COC(=O)[C@@H](O[C@H]3C[C@](C)(O)[C@H](N(C)C)[C@H](C)O3)[C@@H](OC4)[C@H](NC(=O)c3csc1n3)c1nc(cs1)C(=O)N2 (stereo partly specified)
5. CO/C(C)=C1/NC(=O)[C@H]([C@@H](C)O)NC(=O)c2csc(n2)-c2cc(O)c(-c3nc(C(=O)NC(CN4CCCC4)C(N)=O)cs3)nc2-c2csc(n2)[C@@H]2COC(=O)c3c4c5c(cccc5n3O)COC(=O)[C@@H](O[C@H]3C[C@](C)(O)[C@H](N(C)C)[C@H](C)O3)[C@@H](OC4)[C@H](NC(=O)c3csc1n3)c1nc(cs1)C(=O)N2 (stereo partly specified)
6. COCCOCCOCCOCCN1CCN(CC(NC(=O)c2csc(-c3nc4c(cc3O)-c3nc(cs3)C(=O)N[C@@H]([C@@H](C)O)C(=O)N/C(=C(\C)OC)c3nc(cs3)C(=O)N[C@@H]3c5nc(cs5)C(=O)N[C@@H](COC(=O)c5c6c7c(cccc7n5O)COC(=O)[C@@H](O[C@H]5C[C@](C)(O)[C@H](N(C)C)[C@H](C)O5)[C@H]3OC6)c3nc-4cs3)n2)C(N)=O)CC1 (stereo partly specified)

[0.12, 0.5, 0.01, 2, 0.06, 0.5]

Taken from ChEMBL document CHEMBL1138025.
